test system: HCC1569; experiment: H1.0 immunofluorescence intensity relative to DMSO (% of DMSO); higher = stronger H1.0 induction, active = 140 or more; conditions: concentration: 10 µM; 24 h;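 further: TDF is a line of transformed human dermal fibroblasts of mesenchymal origin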
QUANTITY: H1.0 immunofluorescence intensity
One number for each entry.

The following molecules have reported results that may help.
May I ask what H1.0 immunofluorescence intensity has been recorded for CC1CCC2(C(=O)O)CCC3(C)C(=CCC4C5(C)CC(O)C(O)C(C)(CO)C5CCC43C)C2C1C (stereo not drawn) ? 94.7

Which H1.0 immunofluorescence intensity reading was recorded for the molecule NC1(C(=O)O)CCc2cc(C(=O)O)ccc21 (stereo not drawn) ? 84.5

Dear colleague, I am looking for the recorded H1.0 immunofluorescence intensity of the following molecule: Cl.Cl.OCCN1CCN(CCCN2c3ccccc3Sc3ccc(C(F)(F)F)cc32)CC1 [Fluphenazine dihydrochloride] 133

Could you report H1.0 immunofluorescence intensity for every entry in the following list?
1. CCCCCCCCC#CCC#CCC#CCCCC(=O)O
2. O=c1c(-c2ccc(O)cc2)coc2cc(O)cc(O)c12
3. CC(C)(Oc1ccc(CCNC(=O)c2ccc(Cl)cc2)cc1)C(=O)O [Bezafibrate]

98.5
104
105

Batch lookup, H1.0 immunofluorescence intensity per entry.
1. COC(=O)N=NC=C1C=[N+]([O-])c2ccccc2N1O
2. CC(C=CC1(O)C(C)=CC(=O)CC1(C)C)=CC(=O)O (racemic)
3. COc1ccc(CCN(C)CCc2ccc(OC)c(OC)c2)cc1OC.Cl [YS-035 hydrochloride]
4. Cc1nc2c([nH]1)c(=O)n(C)c(=O)n2Cc1ccco1
5. CCc1[nH]c(-c2ccc(OC)cc2)nc1-c1ccncc1
6. CCC1(O)CC2CN(CCc3c([nH]c4ccccc34)C(C(=O)OC)(c3cc4c(cc3OC)N(C)C3C(O)(C(=O)OC)C(OC(C)=O)C5(CC)C=CCN6CCC43C65)C2)C1.O=S(=O)(O)O (stereo not drawn) [Vinblastine sulfate]

[92.8, 88.1, 98.3, 103, 120, 131]
